Target: Ab-15
Sequence (heavy, as listed by the source, chain 1 of 2): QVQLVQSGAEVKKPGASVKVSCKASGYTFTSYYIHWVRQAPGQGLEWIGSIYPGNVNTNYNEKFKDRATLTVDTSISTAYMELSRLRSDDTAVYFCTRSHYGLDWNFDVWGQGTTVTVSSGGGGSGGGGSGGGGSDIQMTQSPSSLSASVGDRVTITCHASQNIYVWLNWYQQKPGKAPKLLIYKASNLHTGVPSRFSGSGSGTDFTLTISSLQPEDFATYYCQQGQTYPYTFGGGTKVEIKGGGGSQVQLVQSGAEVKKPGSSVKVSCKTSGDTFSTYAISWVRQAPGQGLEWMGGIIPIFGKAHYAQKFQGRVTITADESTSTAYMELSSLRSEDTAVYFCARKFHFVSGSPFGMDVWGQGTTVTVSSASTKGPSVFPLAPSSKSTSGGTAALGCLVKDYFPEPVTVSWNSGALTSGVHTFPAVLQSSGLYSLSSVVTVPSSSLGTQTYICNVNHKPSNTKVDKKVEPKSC
Sequence (light, as listed by the source, chain 2 of 2): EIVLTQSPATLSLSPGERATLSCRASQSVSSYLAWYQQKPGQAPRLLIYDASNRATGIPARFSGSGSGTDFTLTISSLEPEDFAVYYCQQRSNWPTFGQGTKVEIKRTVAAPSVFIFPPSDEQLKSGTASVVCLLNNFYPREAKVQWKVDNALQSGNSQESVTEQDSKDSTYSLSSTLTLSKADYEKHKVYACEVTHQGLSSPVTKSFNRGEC
Test: binding ELISA: biotinylated peptide on neutravidin plate, Ab-15 titrated
Where no end group is shown, it is not given here.
Response field label: string, one of T (EC50 strictly below 30 nM) or F.

Below are worked cases with known answers.
WDWCPRDLWVHCFA (cysteine pairing not given here; also: biotinylated, site not given here, CD28 peptide mask) [Peptide-67] ... T
LDWCPRDLWVHCFA (cysteine pairing not given here; also: biotinylated, site not given here, CD28 peptide mask) [Peptide-61] ... T
MDWCPRDLWVHCFA (cysteine pairing not given here; also: biotinylated, site not given here, CD28 peptide mask) [Peptide-41] ... T

Let us examine a further case.
Q) Field: below-cutoff. Rule: recorded EC50 strictly less than 30 nM. Subject: RDWCPRDLWVHCFA (cysteine pairing not given here; also: biotinylated, site not given here, CD28 peptide mask) [Peptide-53]
A) T
